B1: STK38L (parent)
chain: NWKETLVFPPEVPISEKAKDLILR

variants of: B1; experiment: protein stability index of a GFP-peptide fusion (GPS, HEK-293T) (PSI 1-6); higher = more stable; details: c terminus: a fixed tail appended;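 also: lentivirally expressed fusions sorted by FACS into six bins by GFP to DsRed ratio, PSI derived from sequencing read proportions per bin multiplied by bin number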
Parameter threshold = 3. Response is rule met when protein stability index meets or exceeds it, else rule not met.

CONSTRUCT SEQUENCE | LABEL CLASS
NWKETRVFPPEVPISEKAKDLILR [L6R] | rule not met
NWKETLVFPQEVPISEKAKDLILR [P10Q] | rule met
NWKETLVFPPYVPISEKAKDLILR [E11Y] | rule not met
NWKETLVFPPEEPISEKAKDLILR [V12E] | rule met
NWKETLVDPPEVPISEKAKDLILR [F8D] | rule met
NWKETLVFPPEVPISEKGKDLILR [A18G] | rule met
NWKATLVFPPEVPISEKAKDLILR [E4A] | rule not met
NWKETLVFPPEVPISEKAHDLILR [K19H] | rule not met
NWKETLVFPPEVPISEKAWDLILR [K19W] | rule not met
NWKETLVFPPHVPISEKAKDLILR [E11H] | rule not met
NWKETLVFPPEVPISEKAKDLDLR [I22D] | rule met
NWKETLVFPPEVPISEKADDLILR [K19D] | rule met
NWKPTLVFPPEVPISEKAKDLILR [E4P] | rule not met
NWKETLVFPPEVPISEKAKDLHLR [I22H] | rule met
NWKELLVFPPEVPISEKAKDLILR [T5L] | rule not met
NWKETLVFPPEVPISEKAKDCILR [L21C] | rule met
NWKETLVFWPEVPISEKAKDLILR [P9W] | rule not met
NWKETLVTPPEVPISEKAKDLILR [F8T] | rule met
NWKETLVFPPEVPIEEKAKDLILR [S15E] | rule met
NWKETLVFPPEVPIIEKAKDLILR [S15I] | rule not met
NWKETLVFPPEVPISEKAKMLILR [D20M] | rule not met
